The measured values listed here are drawn from PubChem BioAssay (NCI).

System: NCI-H460 lung
assay_summary: NCI tumour cell line growth inhibition, 48 h
Task for the reader: assign each of the following molecules its reported TGI.

molecule	target_system	result
O=C(Oc1ccc(C(c2c(O)c3ccccc3oc2=O)c2c(O)c3ccccc3oc2=O)cc1)c1ccc(C(=O)c2ccccc2)cc1	NCI-H460 lung	45.6 µM
CC(C)=NC(C(=O)O)C(C)(C)S (stereo unspecified)	NCI-H460 lung	> 100 µM
COc1ccc(NC(=O)CSc2nc(C)nc3c2sc(=S)n3-c2ccccc2)cc1	NCI-H460 lung	> 10 µM
CC(=O)n1nc(-c2[nH]c(C)c(-c3nn(C(C)=O)c(=S)o3)c2C)oc1=S	NCI-H460 lung	> 100 µM
O=C1CCC2(c3ccccc3)OCC([C@@H](O)c3ccccc3)N12 (stereo partly specified)	NCI-H460 lung	> 100 µM
OCC1NC(CO)C(O)C1O (stereo unspecified)	NCI-H460 lung	> 100 µM
COc1cc(C2C=C(C)N=C3SC=C(C)N32)cc(OC)c1OC (stereo unspecified)	NCI-H460 lung	7.33 µM
N=C1C(c2nc3ccccc3c(=O)[nH]2)=C(O)CN1c1cccc(Cl)c1	NCI-H460 lung	> 85.6 µM

I need TGI for every entry listed below, if you could help.
1. O=C1NC(c2cccc3ccccc23)Nc2ccc(Cl)cc21 (stereo unspecified)
2. N#C/C(=C\c1ccc(O)c(O)c1)C(=O)NCc1cccc(C(F)(F)F)c1
3. O=C1CC(=O)NC(=NN2C(=O)CSC2c2ccc(Cl)cc2)N1 (stereo unspecified)
4. CC(=O)NNc1nc(C)c(C(=O)/C=C/c2ccc(N(C)C)cc2)s1
5. O=C(Nc1ccc(C(F)(F)F)cc1[N+](=O)[O-])C(=O)Nn1c(=S)[nH]c2ccccc2c1=O
6. NC(=S)NN=Cc1ccccc1OCc1cccc(COc2ccccc2C=NNC(N)=S)n1
7. Cn1c(=O)oc2cc(C(O)CN3CCN(Cc4ccc5c(c4)OCO5)CC3)ccc21 (stereo unspecified)

1: 0.279 µM; 2: 31 µM; 3: > 100 µM; 4: > 100 µM; 5: > 100 µM; 6: > 100 µM; 7: > 100 µM

For every item in the list below, what is its measured TGI?
1. CSc1ccccc1NC1=NCCO1
2. c1ccc(-c2sc(-c3ccccc3)c3c2C(c2ccccc2)c2c(-c4ccccc4)sc(-c4ccccc4)c2C3c2ccccc2)cc1 (stereo unspecified)
3. CC(=O)Nn1c(Cc2ccc(Cl)cc2)nn(C)c1=O
4. O=C(Nc1ccc(Nc2ccc(NC(=O)c3ccccc3)c3c2C(=O)c2ccccc2C3=O)c2c1C(=O)c1ccccc1C2=O)c1ccccc1
5. O=C(O[C@H](/C=C/c1ccccc1)P1(=O)N(Cc2ccccc2)[C@H]2CCCC[C@@H]2N1Cc1ccccc1)c1ccccc1
6. COc1ccc(C(=O)C(c2ccc(OC)cc2)C2(O)C(=O)Nc3c(Cl)cc(Cl)cc32)cc1 (stereo unspecified)

1: > 100 µM; 2: > 100 µM; 3: > 100 µM; 4: > 100 µM; 5: > 100 µM; 6: 49.9 µM
